# credit: PubChem BioAssay AID1345083

- procedure.text: Cytotoxic Profiling in HEK 293 Cell Line of Diverse Libraries Using Quantitative High-Throughput Screening; also: nearly all actives have a fitted effect of over 60% in size
- measurement.context: HEK 293 viability, ATP luminescence (CellTiter-Glo), 48-72 h; series mostly up to 115 µM
About 6,200 (6.6%) of roughly 94,000 compounds were called active. Roughly 31% stayed inconclusive and do not appear here. Calls follow the shape of the dose curve; as a rule, active = well fitted inhibition curve with a large enough effect; inconclusive = small, poorly fitted or top-dose-only effect; inactive = flat fitted curve, though single readings scatter. Shown is part of a subset that was picked to be rich in actives.
Outcome codes: active, inactive

# molecule, classification
measured = [
    ("COc1ccc(CN2CCC3(Cc4ccccc4CNC3=O)C2)cc1OC (centres undefined)", "inactive"),
    ("C=CCn1cc2c3c(cccc31)[C@H](CC(C)C)N[C@H](C(=O)NCC1CC1)C2", "active"),
    ("O=C(Cn1nc2n(c1=O)CCCCC2)N1CCc2ccccc21", "inactive"),
    ("COCCN1C(=O)Cc2ccccc2C1C(=O)NCC1CCCCC1 (centres undefined)", "inactive"),
]

====

- procedure.text: Cytotoxic Profiling in HEK 293 Cell Line of Diverse Libraries Using Quantitative High-Throughput Screening; also: nearly all actives have a fitted effect of over 60% in size
- measurement.context: HEK 293 viability, ATP luminescence (CellTiter-Glo), 48-72 h; series mostly up to 115 µM
About 6,200 (6.6%) of roughly 94,000 compounds were called active. Roughly 31% stayed inconclusive and do not appear here. Calls come from the whole dose curve; as a rule, active = well fitted inhibition curve with a large enough effect; inconclusive = small, poorly fitted or top-dose-only effect; inactive = flat fitted curve, though single readings scatter. This excerpt belongs to a sample that is enriched for actives.
Outcome codes: t (active), f (inactive)

# compound, classification
measured = [
    ("COc1ccccc1N1CCN(C(=O)Cn2c(N3CCc4ccccc4C3)nc(C)cc2=O)CC1", "t"),
    ("COc1ccc(NC(=O)c2ccc3c(c2)N(S(C)(=O)=O)CC3)cc1OC", "f"),
    ("Cc1ccc(CC(=O)N2CCC(Cc3nc(-c4cnccn4)no3)CC2)cc1", "f"),
    ("Cc1ccc(Nc2ccnc(N3CCCC3C(=O)N3CCC(Cc4ccccc4)CC3)n2)cc1 (centres undefined)", "t"),
]

====

- procedure.text: Cytotoxic Profiling in HEK 293 Cell Line of Diverse Libraries Using Quantitative High-Throughput Screening; also: nearly all actives have a fitted effect of over 60% in size
- measurement.context: HEK 293 viability, ATP luminescence (CellTiter-Glo), 48-72 h; series mostly up to 115 µM
Among all 94,000 compounds or so, about 6,200 (6.6%) were called active. Another 31% or so got no clear call; they are omitted. The call rests on the fitted dose curve; in most records, active means well fitted inhibition curve with a large enough effect; inconclusive means small, poorly fitted or top-dose-only effect; inactive means flat fitted curve, though single readings scatter. The entries come from a sample that favours actives as a whole.
Outcome codes: active, inactive

# compound, classification
records = [
    ("COc1cccc(C(=O)N2C(C(=O)NC3CC3)COC23CCN(C(=O)c2ccc(F)cc2)CC3)c1 (stereo unspecified)", "inactive"),
    ("COc1ccc(-c2ccc(C(=O)N3CCN(C(=O)c4ccccc4OC)CC3)cc2)nn1", "inactive"),
    ("CCC(=O)N1Cc2ccccc2CC2(CCCN2C)C1 (stereo unspecified)", "inactive"),
    ("NCC(=O)N1CCCC2(Cc3ccccc3CN2C(=O)c2cccc(Cl)c2)C1 (stereo unspecified)", "active"),
    ("Cn1ncc2c(C(=O)NCC(F)(F)F)cc(-c3ccc(C(F)(F)F)cc3)nc21", "inactive"),
    ("CSc1ccc(CNC(=O)c2cc3c(N4CCSCC4)nc(C)cn3n2)cc1", "inactive"),
]

====

- procedure.text: Cytotoxic Profiling in HEK 293 Cell Line of Diverse Libraries Using Quantitative High-Throughput Screening; also: nearly all actives have a fitted effect of over 60% in size
- measurement.context: HEK 293 viability, ATP luminescence (CellTiter-Glo), 48-72 h; series mostly up to 115 µM
Hit rate of the full screen: of about 94,000 compounds, about 6,200 (6.6%) were called active. Inconclusive results (about 31%) are left out. The call rests on the fitted dose curve; in most records, active means well fitted inhibition curve with a large enough effect; inconclusive means small, poorly fitted or top-dose-only effect; inactive means flat fitted curve, though single readings scatter. The entries come from a sample that favours actives as a whole.
Outcome codes: true for active, false for inactive

# compound, classification
data = [
    ("Cc1noc(C)c1[S+](=O)([O-])N1CCn2c(nnc2C2CCCNC2)C1 (centres undefined)", "false"),
    ("Cc1nc(CCNS(=O)(=O)c2cccnc2)no1", "false"),
    ("Cc1cnc(C2CCC2)n1CC1CCN(C(=O)c2ccncc2)C1 (centres undefined)", "false"),
    ("CC1(C)[C@H](Cc2cc(CCO)on2)C[C@@H]1NCC1CC1", "false"),
    ("CC(=O)N1CCC(N[C@H]2C[C@@H](Cc3cc(CN(C)c4ccccc4)on3)C2(C)C)CC1", "true"),
    ("CC1(C(=O)N2CCN(Cc3ccccc3)CC2)CCOCC1", "false"),
    ("CNC(=O)[C@H]1C[C@H](Oc2cccnc2)CN1C(=O)NCCc1ccccc1", "false"),
    ("CC1=C[C@@H](CNC(=O)CC2(CC(=O)O)CCCC2)[C@H](C(C)C)C[C@H]1Cc1nc2c(C)cccc2[nH]1", "false"),
    ("CNC(=O)c1cc(C2CC2)nc2onc(C3CCCN3C(=O)c3ccccc3)c12 (centres undefined)", "false"),
    ("O=C1Cc2c(-c3ccc(Oc4ccccc4)cc3)n[nH]c2CN1CCc1ccncc1", "true"),
    ("O=C1CCN(S(=O)(=O)c2cccc(F)c2)CCCC(C(=O)NCc2ccccc2)CCN1 (centres undefined)", "false"),
    ("CC1=C[C@@H](CNC2CCN(C)CC2)[C@H](C(C)C)C[C@H]1Cc1nc2ccccc2[nH]1", "true"),
    ("COCCNC(=O)c1ccc2nnc(-c3cccc(C(F)(F)F)c3)n2c1", "false"),
    ("COc1ccc2nc(C[C@@H]3C[C@@H](C(C)C)[C@H](CNC(=O)CC(C)(C)CC(=O)O)C=C3C)[nH]c2c1", "false"),
    ("N#Cc1ccc(-c2nc(C(=O)NC3CCCCCC3)no2)cc1", "false"),
    ("CN1C[C@@H](NC(=O)c2ccc(C#N)cc2)C[C@H]1c1nc(-c2ccc(OC(F)(F)F)cc2)no1", "true"),
    ("CC(=O)N1CCC2(CC1)CN(C(=O)Cc1cccc(Cl)c1)CCO2", "false"),
    ("COc1ccc(CCC(=O)NCC(=O)N2CCCCCCNC(=O)CC2c2ccccc2)cc1 (centres undefined)", "false"),
    ("C=CCNC(=O)c1cn2c(n1)CN(C(=O)c1ccccc1F)CC2", "false"),
    ("COCCNC(=O)C1CCCN(Cc2cccc(-c3cccs3)c2)C1 (centres undefined)", "false"),
    ("CC1=C[C@@H](CNC(=O)C2CCCCC2)[C@H](C(C)C)C[C@H]1Cc1nc2ccc(F)cc2[nH]1", "true"),
    ("CN(C)CC(O)COc1ccc(CN(C)C2CCSCC2)cc1 (centres undefined)", "false"),
    ("CN(Cc1ccccc1)Cc1cc(CC2(NCc3ccc(CO)o3)COC2)no1", "false"),
    ("Cc1cc(C)n(Cc2cc(C(=O)N3CCSCC3)n[nH]2)n1", "false"),
    ("Cc1cc(C)n(C2CN(c3cc(C4CC(O)C4)nc(C)n3)C2)n1 (centres undefined)", "false"),
    ("Nc1nc(C2CC(NC(=O)CCc3nc4ccc(F)cc4[nH]3)C2)cc(=O)[nH]1 (centres undefined)", "false"),
    ("COc1ccc2nc([C@H]3CCN(Cc4ccc(NC(C)=O)cc4)C3)[nH]c2c1", "false"),
    ("O=C(NCc1cccc(Cl)c1)c1ccc2nnc(Cc3ccc(Cl)cc3)n2c1", "true"),
    ("CC(=O)N1CCC(NC[C@@H]2C=C(C)[C@H](Cc3nc4ccccc4n3C)C[C@H]2C(C)C)CC1", "false"),
    ("CC1=C[C@@H](CNCC(C)C)[C@H](C(C)C)C[C@H]1Cc1nc2c(C)cccc2[nH]1", "true"),
    ("O=C(NCc1ccc2c(c1)OCO2)C1CCCN(Cc2cccc(-c3cccs3)c2)C1 (centres undefined)", "true"),
    ("O=C(NCc1ccc(C(F)(F)F)cc1)c1ccc2nnc(-c3ccc(C(F)(F)F)cc3)n2c1", "true"),
    ("CC1(C)[C@H](Cc2cc(-c3ccccc3)on2)C[C@@H]1NCC1CC1", "true"),
    ("CC1(C)[C@H](Cc2cc(CC3CCCCC3)on2)C[C@@H]1NC(=O)C1CCC1", "true"),
]
